- Tgt: FGF receptor/BKL complex
- Sequence (Q86Z14 whole entry, one chain of several): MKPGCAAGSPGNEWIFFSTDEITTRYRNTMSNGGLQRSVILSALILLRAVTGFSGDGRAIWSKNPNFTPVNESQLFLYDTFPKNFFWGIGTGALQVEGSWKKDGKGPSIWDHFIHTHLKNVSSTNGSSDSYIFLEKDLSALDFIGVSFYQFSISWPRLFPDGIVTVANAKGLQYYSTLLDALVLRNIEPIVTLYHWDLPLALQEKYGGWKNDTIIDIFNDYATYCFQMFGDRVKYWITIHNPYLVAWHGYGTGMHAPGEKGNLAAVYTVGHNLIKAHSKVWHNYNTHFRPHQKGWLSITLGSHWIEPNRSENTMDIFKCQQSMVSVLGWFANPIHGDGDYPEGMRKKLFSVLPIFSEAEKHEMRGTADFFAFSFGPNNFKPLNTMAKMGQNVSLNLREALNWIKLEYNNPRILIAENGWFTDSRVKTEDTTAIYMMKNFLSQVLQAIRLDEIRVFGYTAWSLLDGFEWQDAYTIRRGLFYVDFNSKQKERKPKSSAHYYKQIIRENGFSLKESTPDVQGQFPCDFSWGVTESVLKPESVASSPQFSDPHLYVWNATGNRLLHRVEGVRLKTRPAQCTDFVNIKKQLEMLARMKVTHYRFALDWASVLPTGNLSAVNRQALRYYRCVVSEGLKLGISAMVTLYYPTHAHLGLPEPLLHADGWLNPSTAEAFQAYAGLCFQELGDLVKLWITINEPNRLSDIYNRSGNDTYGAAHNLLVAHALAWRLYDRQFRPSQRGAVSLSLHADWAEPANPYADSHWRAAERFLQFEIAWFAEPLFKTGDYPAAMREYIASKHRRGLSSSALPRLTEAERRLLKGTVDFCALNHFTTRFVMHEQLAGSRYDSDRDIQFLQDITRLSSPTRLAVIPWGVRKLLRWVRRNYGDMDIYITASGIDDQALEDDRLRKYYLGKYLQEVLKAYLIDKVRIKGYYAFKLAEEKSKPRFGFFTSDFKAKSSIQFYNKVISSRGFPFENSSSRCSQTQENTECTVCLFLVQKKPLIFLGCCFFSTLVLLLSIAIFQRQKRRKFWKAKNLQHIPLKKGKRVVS
- Protocol details: FGF receptor potency in an Erk phosphorylation assay in HEK293 overexpressing human BKL
- Type: cell-based
- Experimental parameters: HEK293/BKL cells, pERK after 12 minutes, absence of HSA; read-out: EC50
molecules and their reported EC50
A complete answer gives the number followed by the unit.

// known answers, use as guide
Molecule: Ala[Gln121, Cys168]FGF21 (protein, N-terminal Ala) AHPIPDSSPLLQFGGQVRQRYLYTDDAQQTEAHLEIREDGTVGGAADQSPESLLQLKALKPGVIQILGVKTSRFLCQRPDGALYGSLHFDPEACSFRELLLEDGYNVYQSEAHGLPLHLPGQKSPHRDPAPRGPARFLPLPGLPPALPEPPGILAPQPPDVGSSDPLSCVGPSQGRSPSYAS
Value observed: 492 nM
//
Molecule: S{Beta-180}-2-aminoethylsulfanyl-Ala[Gln121, Leu168, Cys180]FGF21 (protein, N-terminal Ala; cysteamine disulfide on Cys180) AHPIPDSSPLLQFGGQVRQRYLYTDDAQQTEAHLEIREDGTVGGAADQSPESLLQLKALKPGVIQILGVKTSRFLCQRPDGALYGSLHFDPEACSFRELLLEDGYNVYQSEAHGLPLHLPGQKSPHRDPAPRGPARFLPLPGLPPALPEPPGILAPQPPDVGSSDPLSLVGPSQGRSPSYCS
Value observed: 2.3 nM

Now look at this entry.
Answer with the recorded EC50 for the molecule listed here: Ala[Gln121, Leu168, Cys170]FGF21 (protein, N-terminal Ala) AHPIPDSSPLLQFGGQVRQRYLYTDDAQQTEAHLEIREDGTVGGAADQSPESLLQLKALKPGVIQILGVKTSRFLCQRPDGALYGSLHFDPEACSFRELLLEDGYNVYQSEAHGLPLHLPGQKSPHRDPAPRGPARFLPLPGLPPALPEPPGILAPQPPDVGSSDPLSLVCPSQGRSPSYAS
7 nM
